Where do the numbers come from? From patent US3931174A.

Test system: Streptococcus pyogenes
Experiment: In vitro MIC, anaerobic agar dilution, Strep. pyogenes
Format: cell-based
Conditions: brain-heart infusion agar, 37°C.
I'd be grateful if you could share measured MIC for these entries.
Write the number in µg/mL without appending the unit.

I have this compound here, Cc1c(CS(C)(=O)=O)[n+]([O-])c2ccccc2[n+]1[O-] [CH3 SO2 --CH3] , and I need its recorded MIC.
1.56

I have this compound here, CCC[S+]([O-])Cc1c[n+]([O-])c2ccccc2[n+]1[O-] (stereo not drawn) [H SO--CH2 CH2 CH3] , and I need its recorded MIC.
1.56

I have this compound here, Cc1c(C[S+](C)[O-])[n+]([O-])c2ccccc2[n+]1[O-] (stereo not drawn) [CH3 SO--CH3] , and I need its recorded MIC.
25

I have this compound here, CC[S+]([O-])Cc1c[n+]([O-])c2ccccc2[n+]1[O-] (stereo not drawn) [H SO--CH2 CH3] , and I need its recorded MIC.
0.781

###

System: Streptococcus pyogenes
Test: In vitro MIC, anaerobic agar dilution, Strep. pyogenes
Type: cell-based
Details: brain-heart infusion agar, 37°C.
Method: The in vitro activities are determined under anaerobic conditions in the following manner. Appropriate serial two-fold dilutions of the compounds are mixed with molten brain-heart infusion agar in sterile petri dishes and allowed to solidify. The bacterial cells (approximately 10^5 -10^6 cells) are placed on the top of the agar plate with a Steers replicating device. The plates are incubated at 37°C. in the anaerobic conditions achieved by a Gas Pak (BBL, Cockeysville, Ind.). The M.I.C. […]
I'd be grateful if you could share measured MIC for these entries.
Write the number in µg/mL without appending the unit.

I have this compound here, CC(C)S(=O)(=O)Cc1c[n+]([O-])c2ccccc2[n+]1[O-] [H SO2 --CH(CH3)2] , and I need its recorded MIC.
1.56

I have this compound here, CCCS(=O)(=O)Cc1c[n+]([O-])c2ccccc2[n+]1[O-] [H SO2 --CH2 CH2 CH3] , and I need its recorded MIC.
3.12

I have this compound here, CCCSCc1c[n+]([O-])c2ccccc2[n+]1[O-] [H S--CH2 CH2 CH3] , and I need its recorded MIC.
50

I have this compound here, CSCc1c[n+]([O-])c2ccccc2[n+]1[O-] [H S--CH3] , and I need its recorded MIC.
1.56

###

I'd be grateful if you could share measured MIC for these entries.
System: Escherichia coli
Assay: In vitro MIC, anaerobic agar dilution, E. coli
Assay type: cell-based
Conditions: brain-heart infusion agar, 37°C.
Protocol: The in vitro activities are determined under anaerobic conditions in the following manner. Appropriate serial two-fold dilutions of the compounds are mixed with molten brain-heart infusion agar in sterile petri dishes and allowed to solidify. The bacterial cells (approximately 10^5 -10^6 cells) are placed on the top of the agar plate with a Steers replicating device. The plates are incubated at 37°C. in the anaerobic conditions achieved by a Gas Pak (BBL, Cockeysville, Ind.). The M.I.C. […]
Write the number in µg/mL without appending the unit.

I have this molecule here, CC(C)S(=O)(=O)Cc1c[n+]([O-])c2ccccc2[n+]1[O-] , and I need its recorded MIC.
0.781

I have this molecule here, CSCc1c[n+]([O-])c2ccccc2[n+]1[O-] , and I need its recorded MIC.
1.56

I have this molecule here, CCCS(=O)(=O)Cc1c[n+]([O-])c2ccccc2[n+]1[O-] , and I need its recorded MIC.
25

I have this molecule here, CC[S+]([O-])Cc1c[n+]([O-])c2ccccc2[n+]1[O-] (centres unmarked) , and I need its recorded MIC.
3.12

I have this molecule here, Cc1c(CS(C)(=O)=O)[n+]([O-])c2ccccc2[n+]1[O-] , and I need its recorded MIC.
3.12

I have this molecule here, CCCSCc1c[n+]([O-])c2ccccc2[n+]1[O-] , and I need its recorded MIC.
50

I have this molecule here, CCC[S+]([O-])Cc1c[n+]([O-])c2ccccc2[n+]1[O-] (centres unmarked) , and I need its recorded MIC.
6.25

###

Test system: Escherichia coli
Test: In vitro MIC, anaerobic agar dilution, E. coli
Assay type: cell-based
Conditions: brain-heart infusion agar, 37°C.
result type: MIC

GET /values?readout=MIC&system=Escherichia coli&item= CS(=O)(=O)Cc1c[n+]([O-])c2ccccc2[n+]1[O-] [H SO2 --CH3]
< 0.391 µg/mL

GET /values?readout=MIC&system=Escherichia coli&item= Cc1c(C[S+](C)[O-])[n+]([O-])c2ccccc2[n+]1[O-] (stereo not shown) [CH3 SO--CH3]
> 200 µg/mL

GET /values?readout=MIC&system=Escherichia coli&item= CCS(=O)(=O)Cc1c[n+]([O-])c2ccccc2[n+]1[O-] [H SO2 --CH2 CH3]
< 0.391 µg/mL

GET /values?readout=MIC&system=Escherichia coli&item= C[S+]([O-])Cc1c[n+]([O-])c2ccccc2[n+]1[O-] (stereo not shown) [H SO--CH3]
< 0.391 µg/mL
